molecular target: recombinant hGPC3-His (human) (UniProt P51654); test: Biacore SPR, antibody captured, hGPC3-His analyte, 1:1 model
parameter: koff (s⁻¹)
# number only, unit s⁻¹ dropped from output

[
  {
    "binder": "P3-A1 IgG variant of ARD-103 (antibody, V domains shown) VH: QVQLVESGAEVKKPGASVKVSCKASGYTFTDYEMHWVRQAPGQGLEWMGALDPSTGDTAYSQKFKGRVTLTADKSTSTAYMELSSLTSEDTAVYYCTRFYSYTYWGQGTLVTVSS VL: DVVMTQSPLSLPVTPGEPASISCRSSQSLVHWNGNTYLHWYLQKPGQSPQLLIYKVSNRFSGVPDRFSGSGSGTDFTLKISRVEAEDVGVYYCAQNTHVPPTFGQGTKLEIKR",
    "koff / s⁻¹": 0.000196
  }
]

We next turn to a different binder, shown below.
For P1-A1 IgG variant of ARD-103 (antibody, V domains shown) VH: QVQLVESGAEVKKPGASVKVSCKASGYTFTDYEMHWVRQAPGQGLEWMGALDPKTGDTAYSQKFQGRVTLTADKSTSTAYMELSSLTSEDTAVYYCTRFYSYTYWGQGTLVTVSS VL: DVVMTQSPLSLPVTPGEPASISCRSSQSLVRSNGNTYLHWYLQKPGQSPQLLIYKVSNRFSGVPDRFSGSGSGTDFTLKISRVEAEDVGVYYCVQNTHVPPTFGQGTKLEIKR the binder record lists koff as 0.000172
